# assayed-target: T1, Cynomologus monkey TNFR1 on CYNOM-K1 cells (Cynomolgus monkey, UniProt Q2PFV5 30-455)
# T1 sequence: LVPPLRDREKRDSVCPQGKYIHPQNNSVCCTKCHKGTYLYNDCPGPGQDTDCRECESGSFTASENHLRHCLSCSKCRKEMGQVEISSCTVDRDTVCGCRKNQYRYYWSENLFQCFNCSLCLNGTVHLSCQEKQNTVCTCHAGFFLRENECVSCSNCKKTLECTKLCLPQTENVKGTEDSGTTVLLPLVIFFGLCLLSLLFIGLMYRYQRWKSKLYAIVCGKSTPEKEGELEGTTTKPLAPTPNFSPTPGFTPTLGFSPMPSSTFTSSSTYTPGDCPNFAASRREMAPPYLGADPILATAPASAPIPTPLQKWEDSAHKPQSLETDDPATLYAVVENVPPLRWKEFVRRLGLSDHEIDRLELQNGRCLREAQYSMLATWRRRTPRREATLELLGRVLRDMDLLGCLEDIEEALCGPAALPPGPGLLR
# experiment-notes: cell-based or functional assay
Please use t for Cynomologus CYNOM-K1 ND50 under 2 nM and f for everything else, ties included.

// below: answered binders
DOM1h-574-139 (other, VH dAb) VH: EVQLLESGGGLVQPGGSLRLSCAASGFTFLKYSMGWVRQAPGKGLEWVSQISDTADRTYYAHSVKGRFTISRDNSKNTLYLQMNSLRAEDTAVYYCAIYTGRWAPFEYWGQGTLVTVSS	t
DOM1h-574-135 (other, VH dAb) VH: EVQLLESGGGLVQPGGSLRLSCAASGFTFVKYSMGWVRQAPGKGLEWVSQISDTADRTYYTHSVKGRFTISRDNSKNTLYLQMNSLRAEDTAVYYCAIYTGRWVPFEYWGQGTLVTVSS	t
DOM1h-574-72 (other, VH dAb; expressed in E. coli, purified on Protein A) VH: EVQLLESGGGLVQPGGSLRLSCAASGFTFVKYSMGWVRQAPGKGLEWVSQISNTADRTYYAHSVKGRFTISRDNSKNTLYLQMNSLRAEDTAVYYCAIYTGRWVPFEYWGQGTLVTVSS	f
DOM1h-574-138 (other, VH dAb) VH: EVQLLESGGGLVQPGGSLRLSCAASGFTFFKYSMGWVRQAPGKGLEWVSQISDTADRTYYAHSVKGRFTISRDNSKNTLYLQMNSLRAEDTAVYYCAIYTGRWAPFEYWGQGTLVTVSS	t

stdin: Hello, is Cynomologus CYNOM-K1 ND50 of the following binder strictly smaller than 2 nM? DOM1h-574-133 (other, VH dAb) VH: EVQLLESGGGLVQPGGSLRLSCAASGFTFVKYSMGWVRQAPGKGLEWVSQISDTADRTYYDHSVKGRFTISRDNSKNTLYLQMNSLRAEDTAVYYCAIYTGRWEPFVYWGQGTLVTVSS
stdout: t

stdin: is_below(Cynomologus CYNOM-K1 ND50, 2 nM) for DOM1h-574-109 (other, VH dAb) VH: EVQLLESGGGLVQPGGSLRLSCAASGFTFVKYSMGWVRQAPGKGLEWVSQISDTADRTYYAHSVKGRFTISRDNSKNTLYLQMNSLRAEDTAVYYCAIYTGRWVPFEYWGQGTLVTVSS ?
stdout: f

stdin: Hi there! Is Cynomologus CYNOM-K1 ND50 for DOM1h-574-155 (other, VH dAb) VH: EVQLLESGGGLVQPGGSLRLSCAASGFTFLKYSMGWVRQAPGKGLEWVSQISDTADRTYYAHSVKGRFTISRDNSKNTLYLQMNSLRAEDTAVYYCAIYTGRWVPFEYWGQGTLVTVSS below 2 nM, do you know?
stdout: t
